- TARGET: α1A adrenoceptor (prostate) (Rattus norvegicus, UniProt P43140)
- Construct: from tissue; host or cells: isolated prostate tissue
- Sequence (P43140 whole entry): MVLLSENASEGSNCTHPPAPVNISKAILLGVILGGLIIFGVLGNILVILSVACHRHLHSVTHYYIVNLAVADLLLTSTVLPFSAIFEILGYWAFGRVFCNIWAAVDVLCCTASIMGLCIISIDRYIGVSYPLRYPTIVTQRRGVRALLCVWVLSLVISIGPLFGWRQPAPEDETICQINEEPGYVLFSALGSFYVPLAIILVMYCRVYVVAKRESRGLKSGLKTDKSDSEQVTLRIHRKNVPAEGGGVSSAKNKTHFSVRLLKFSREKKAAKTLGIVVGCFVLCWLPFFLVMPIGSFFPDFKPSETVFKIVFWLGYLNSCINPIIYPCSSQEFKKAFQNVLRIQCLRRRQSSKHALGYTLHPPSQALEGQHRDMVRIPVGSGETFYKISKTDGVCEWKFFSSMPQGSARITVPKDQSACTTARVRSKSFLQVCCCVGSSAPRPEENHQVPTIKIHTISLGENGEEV
- ASSAY_REMARKS: In vitro functional study, antagonism of phenylepinephrine-induced contraction of prostate
- Assay type: biochemical
- EXPERIMENTAL_CONDITIONS: prostate, phenylepinephrine, tested compound at 0.1, 1 and 10 mM; read-out: α Adrenoceptor Subtype (pKB) α1A (converted)
EXPERIMENTAL_ENDPOINT: Kb (nM)

Take a look at these entries with their results.
Query the reported Kb for α1A adrenoceptor (prostate) (Rattus norvegicus, UniProt P43140); item: CCOc1ccccc1N1CCN(CCCN2C(=O)C3CC=CCC3C2=O)CC1.Cl (stereo not shown) [Compound 11, hydrochloride]
0.112

Query the reported Kb for α1A adrenoceptor (prostate) (Rattus norvegicus, UniProt P43140); item: Cl.O=C1C2CC=CCC2C(=O)N1CCCN1CCN(c2ccccc2)CC1 (stereo not shown) [Compound 13, hydrochloride]
9.12

Query the reported Kb for α1A adrenoceptor (prostate) (Rattus norvegicus, UniProt P43140); item: CC(C)Oc1ccccc1N1CCN(CCCN2C(=O)C3CC=CCC3C2=O)CC1.Cl (stereo not shown) [Compound 23, hydrochloride]
0.115

Query the reported Kb for α1A adrenoceptor (prostate) (Rattus norvegicus, UniProt P43140); item: COc1ccc(F)cc1N1CCN(CCCN2C(=O)C3CC=CCC3C2=O)CC1.Cl (stereo not shown) [Compound 08, hydrochloride]
1.17

Query the reported Kb for α1A adrenoceptor (prostate) (Rattus norvegicus, UniProt P43140); item: COc1ccccc1N1CCN(CCCN2C(=O)C3CC=CCC3C2=O)CC1.Cl (stereo not shown) [Compound 01, hydrochloride]
0.537

(A) COc1ccccc1N1CCN(C(C)CCN2C(=O)C3CC=CCC3C2=O)CC1.Cl (stereo not shown) [Compound 29, hydrochloride]
(B) CCc1ccccc1N1CCN(CCCN2C(=O)C3CC=CCC3C2=O)CC1.Cl (stereo not shown) [Compound 09, hydrochloride]
(C) CCOc1ccccc1N1CCN(C(C)CCN2C(=O)C3CC=CCC3C2=O)CC1.Cl (stereo not shown) [Compound 31, hydrochloride]
(D) CCCOc1ccccc1N1CCN(CCCN2C(=O)C3CC=CCC3C2=O)CC1.Cl (stereo not shown) [Compound 24, hydrochloride]
(E) CCCCCCOc1ccccc1N1CCN(CCCN2C(=O)C3CC=CCC3C2=O)CC1.Cl (stereo not shown) [Compound 25, hydrochloride]
Given 5 compounds, produce a descending ranking by Kb. Response field: labels, in requested order.
A, C, E, B, D

----------
- TARGET: α1D adrenoceptor (aorta) (Rattus norvegicus, UniProt P23944)
- Construct: Isolated tissues were mounted in organ bath containing Krebs Henseleit buffer; from tissue; host or cells: isolated aorta of male wistar rats
- Sequence (P23944 1-561): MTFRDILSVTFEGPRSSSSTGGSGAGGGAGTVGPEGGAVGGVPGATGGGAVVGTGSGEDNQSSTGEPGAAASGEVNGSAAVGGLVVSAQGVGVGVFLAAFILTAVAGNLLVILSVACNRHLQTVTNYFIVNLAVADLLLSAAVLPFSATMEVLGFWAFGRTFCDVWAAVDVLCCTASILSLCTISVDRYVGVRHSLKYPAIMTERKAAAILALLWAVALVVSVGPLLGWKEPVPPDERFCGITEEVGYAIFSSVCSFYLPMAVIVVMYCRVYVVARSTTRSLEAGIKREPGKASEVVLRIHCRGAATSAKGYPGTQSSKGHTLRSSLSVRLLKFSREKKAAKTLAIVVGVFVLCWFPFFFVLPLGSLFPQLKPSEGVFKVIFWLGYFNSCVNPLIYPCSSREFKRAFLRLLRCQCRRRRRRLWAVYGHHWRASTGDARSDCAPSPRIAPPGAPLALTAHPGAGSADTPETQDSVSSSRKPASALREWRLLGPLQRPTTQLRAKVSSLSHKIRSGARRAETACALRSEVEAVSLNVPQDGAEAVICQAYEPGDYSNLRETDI
- ASSAY_REMARKS: In vitro functional study, antagonism of norepinephrine-induced contraction of aorta
- Format: biochemical
- EXPERIMENTAL_CONDITIONS: tested compound at 0.1, 1 and 10 mM, read-out: α Adrenoceptor Subtype (pKB) α1D (converted)
EXPERIMENTAL_ENDPOINT: Kb (nM)

Take a look at these entries with their results.
# input compound: COc1ccccc1N1CCN(CCCN2C(=O)C3CC=CCC3C2=O)CC1.Cl (stereo not shown) [Compound 01, hydrochloride] ; wanted: its Kb
2.29

# input compound: Cl.O=C1C2CC=CCC2C(=O)N1CCCN1CCN(c2ccccc2)CC1 (stereo not shown) [Compound 13, hydrochloride] ; wanted: its Kb
51.3

# input compound: CCOc1ccccc1N1CCN(CCCN2C(=O)C3CC=CCC3C2=O)CC1.Cl (stereo not shown) [Compound 11, hydrochloride] ; wanted: its Kb
1.74

(a) COc1ccc(F)cc1N1CCN(CCCN2C(=O)C3CC=CCC3C2=O)CC1.Cl (stereo not shown) [Compound 08, hydrochloride]
(b) CCc1ccccc1N1CCN(CCCN2C(=O)C3CC=CCC3C2=O)CC1.Cl (stereo not shown) [Compound 09, hydrochloride]
(c) CCOc1ccccc1N1CCN(C(C)CCN2C(=O)C3CC=CCC3C2=O)CC1.Cl (stereo not shown) [Compound 31, hydrochloride]
rank_up(items): orders items by reported Kb in ascending numerical order. Response field: labels, in requested order.
a, b, c

(1) CC(C)Oc1ccccc1N1CCN(CCCN2C(=O)C3CC=CCC3C2=O)CC1.Cl (stereo not shown) [Compound 23, hydrochloride]
(2) COc1ccccc1N1CCN(C(C)CCN2C(=O)C3CC=CCC3C2=O)CC1.Cl (stereo not shown) [Compound 29, hydrochloride]
(3) CCCOc1ccccc1N1CCN(CCCN2C(=O)C3CC=CCC3C2=O)CC1.Cl (stereo not shown) [Compound 24, hydrochloride]
rank_up(items): orders items by reported Kb in ascending numerical order. Response field: labels, in requested order.
1, 3, 2

----------
- TARGET: α1A adrenoceptor (prostate) (Rattus norvegicus, UniProt P43140)
- Construct: from tissue; host or cells: isolated prostate tissue
- ASSAY_REMARKS: In vitro functional study, antagonism of phenylepinephrine-induced contraction of prostate
- Type: biochemical
- EXPERIMENTAL_CONDITIONS: functional assays, from pKB values
EXPERIMENTAL_ENDPOINT: Selectivity α1A/α1B

Take a look at these entries with their results.
Query the reported Selectivity α1A/α1B for α1A adrenoceptor (prostate) (Rattus norvegicus, UniProt P43140); item: COc1ccccc1N1CCN(C(C)CCN2C(=O)C3CC=CCC3C2=O)CC1.Cl (stereo not drawn)
18

Query the reported Selectivity α1A/α1B for α1A adrenoceptor (prostate) (Rattus norvegicus, UniProt P43140); item: CCCCCCOc1ccccc1N1CCN(CCCN2C(=O)C3CC=CCC3C2=O)CC1.Cl (stereo not drawn)
54

Query the reported Selectivity α1A/α1B for α1A adrenoceptor (prostate) (Rattus norvegicus, UniProt P43140); item: CC(C)Oc1ccccc1N1CCN(CCCN2C(=O)C3CC=CCC3C2=O)CC1.Cl (stereo not drawn)
170

Query the reported Selectivity α1A/α1B for α1A adrenoceptor (prostate) (Rattus norvegicus, UniProt P43140); item: CCCOc1ccccc1N1CCN(CCCN2C(=O)C3CC=CCC3C2=O)CC1.Cl (stereo not drawn)
355

Query the reported Selectivity α1A/α1B for α1A adrenoceptor (prostate) (Rattus norvegicus, UniProt P43140); item: COc1ccc(F)cc1N1CCN(CCCN2C(=O)C3CC=CCC3C2=O)CC1.Cl (stereo not drawn)
3.4

Query the reported Selectivity α1A/α1B for α1A adrenoceptor (prostate) (Rattus norvegicus, UniProt P43140); item: CCOc1ccccc1N1CCN(CCCN2C(=O)C3CC=CCC3C2=O)CC1.Cl (stereo not drawn)
47

(a) COc1ccccc1N1CCN(CCCN2C(=O)C3CC=CCC3C2=O)CC1.Cl (stereo not drawn)
(b) CCc1ccccc1N1CCN(CCCN2C(=O)C3CC=CCC3C2=O)CC1.Cl (stereo not drawn)
(c) Cl.O=C1C2CC=CCC2C(=O)N1CCCN1CCN(c2ccccc2)CC1 (stereo not drawn)
Given 3 molecules, produce a descending ranking by Selectivity α1A/α1B. Response field: labels, in requested order.
c, a, b

----------
Listed here: items and their measured melting point.
Where a name gives a salt, the structure may show the parent alone.

Take a look at these entries with their results.
# input compound: Cl.O=C1C2CC=CCC2C(=O)N1CCCN1CCN(Cc2ccccc2)CC1 (centres unmarked) ; wanted: its melting point
275 to 278 °C

# input compound: CCc1ccccc1N1CCN(CCCN2C(=O)C3CC=CCC3C2=O)CC1.Cl (centres unmarked) ; wanted: its melting point
232.5 to 233.5 °C

# input compound: COc1ccc(N2CCN(CCCN3C(=O)C4CC=CCC4C3=O)CC2)c(OC)c1.Cl (centres unmarked) ; wanted: its melting point
226 to 227 °C

# input compound: CCCOc1ccccc1N1CCN(CCCN2C(=O)C3CC=CCC3C2=O)CC1.Cl (centres unmarked) ; wanted: its melting point
193 to 194 °C

# input compound: Cl.O=C1C2CC=CCC2C(=O)N1CCCN1CCN(c2ccccc2)CC1 (centres unmarked) ; wanted: its melting point
231 to 232 °C

# input compound: Cl.O=C1C2CC=CCC2C(=O)N1CCCN1CCN(CC=Cc2ccccc2)CC1 (centres unmarked) ; wanted: its melting point
263 to 265 °C

***
# input compound: CCOc1ccccc1N1CCN(CCCN2C(=O)C3CC=CCC3C2=O)CC1.Cl (centres unmarked) ; wanted: its melting point
221.9 to 222.7 °C

# input compound: Cc1cccc(C)c1N1CCN(CCCN2C(=O)C3CC=CCC3C2=O)CC1.Cl (centres unmarked) ; wanted: its melting point
223 to 224 °C

# input compound: Cl.O=C1C2CC=CCC2C(=O)N1CCCN1CCN(c2cccc(Cl)c2)CC1 (centres unmarked) ; wanted: its melting point
221 to 223 °C

# input compound: Cl.O=C1C2CC=CCC2C(=O)N1CCCN1CCN(c2ccc(F)cc2)CC1 (centres unmarked) ; wanted: its melting point
228 to 230 °C

# input compound: Cc1ccc(N2CCN(CCCN3C(=O)C4CC=CCC4C3=O)CC2)cc1Cl.Cl (centres unmarked) ; wanted: its melting point
248 to 249 °C

# input compound: COc1ccccc1N1CCN(C(C)CCN2C(=O)C3CC=CCC3C2=O)CC1.Cl (centres unmarked) ; wanted: its melting point
219 to 220 °C

# input compound: O=C1[C@H]2CC=CC[C@H]2C(=O)N1CCCN1CCN(C(c2ccc(F)cc2)c2ccc(F)cc2)CC1 (as salt: hydrochloride) ; wanted: its melting point
235 to 236 °C

# input compound: CCOc1ccccc1N1CCN(C(C)CCN2C(=O)C3CC=CCC3C2=O)CC1.Cl (centres unmarked) ; wanted: its melting point
246 to 248 °C
